Biological target: α1b-AR (Homo sapiens, UniProt P35368)
Construct: expressed in transfected cells; host or cells: COS-7
Sequence (P35368 1-520): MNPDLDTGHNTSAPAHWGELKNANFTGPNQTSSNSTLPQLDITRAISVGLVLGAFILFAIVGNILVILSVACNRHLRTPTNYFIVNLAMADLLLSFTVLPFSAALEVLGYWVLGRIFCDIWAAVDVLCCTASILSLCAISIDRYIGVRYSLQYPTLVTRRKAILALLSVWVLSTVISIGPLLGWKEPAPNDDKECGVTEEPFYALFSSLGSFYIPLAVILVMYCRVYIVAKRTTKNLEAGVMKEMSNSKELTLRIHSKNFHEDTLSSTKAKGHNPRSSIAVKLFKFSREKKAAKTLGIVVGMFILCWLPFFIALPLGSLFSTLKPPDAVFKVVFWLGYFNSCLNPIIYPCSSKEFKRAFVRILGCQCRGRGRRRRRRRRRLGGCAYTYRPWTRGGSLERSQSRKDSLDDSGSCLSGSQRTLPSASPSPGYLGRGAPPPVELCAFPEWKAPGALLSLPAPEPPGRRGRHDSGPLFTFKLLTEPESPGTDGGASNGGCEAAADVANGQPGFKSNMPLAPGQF
Assay: α1-Adrenergic receptor radio-ligand (125I-HEAT) binding assay, α1b subtype
Conditions: COS-7 cell membranes transfected with α1b-AR, 125I-HEAT 50 pM; read-out: Receptor Binding, Ki α1b-AR
metric: Ki

q: Query (compound): CC(C)Oc1ccccc1CN1CCN(Cc2ccc(C(=O)N3CCc4ccccc43)cc2)CC1 ; field requested: Ki
a: 1730 nM

q: How about COc1ccccc1C1CCN(Cc2cccc(C(=O)N3CCc4ccc(NCc5ccccc5F)cc43)c2)CC1 ?
a: 101 nM

q: And the next one, Cc1c(S(=O)(=O)Nc2ccc3c(c2)N(C(=O)c2cccc(CN4CCN(c5ccccc5OC(C)C)CC4)c2)CC3)sc2ccc(Cl)cc12 ?
a: 43 nM

q: Repeat with CC(C)Oc1ccccc1N1CCN(Cc2cccc(C(=O)N3CCc4cc(N)ccc43)c2)CC1
a: 301 nM
